Recorded values, source patent US20200316038A1.

Tested on: CPS1
Test Protocol: RNA-seq, CPS1 expression in compound-treated primary human hepatocytes
Type: cell-based
Recorded Fold change (Log 2) vs untreated by entry
Quantity Kind: Fold change (Log 2) vs untreated

1) GDF10 (BMP3b): member of the BMP family and the TGF-B superfamily (protein, UniProt P55107 369-478, looked up) Growth/differentiation factor …: QWDEPRVCSRRYLKVDFADIGWNEWIISPKSFDAYYCAGACEFPMPKIVRPSNHATIQSIVRAVGIIPGIPEPCCVPDKMNSLGVLFLDENRNVVLKVYPNMSVDTCACR : 1.66 Log 2
2) Nodal: 13 kDa member of the TGF-B superfamily (protein, UniProt Q96S42 238-347, looked up) Nodal homolog: HHLPDRSQLCRKVKFQVDFNLIGWGSWIIYPKQYNAYRCEGECPNPVGEEFHPTNHAYIQSLLKRYQPHRVPSTCCAPVKTKPLSMLYVDNGRVLLDHHKDMIVEECGCL : 2.44 Log 2
3) Wnt3a: WNT family secreted signaling protein; FRIZZLED activator (protein, UniProt P56704 19-352, looked up) Protein Wnt-3a: SYPIWWSLAVGPQYSSLGSQPILCASIPGLVPKQLRFCRNYVEIMPSVAEGIKIGIQECQHQFRGRRWNCTTVHDSLAIFGPVLDKATRESAFVHAIASAGVAFAVTRSCAEGTAAICGCSSRHQGSPGKGWKWGGCSEDIEFGGMVSREFADARENRPDARSAMNRHNNEAGRQAIASHMHLKCKCHGLSGSCEVKTCWWSQPDFRAIGDFLKDKYDSASEMVVEKHRESRGWVETLRPRYTYFKVPTERDLVYYEASPNFCEPNPETGSFGTRDRTCNVSSHGIDGCDLLCCGRGHNARAERRREKCRCVFHWCCYVSCQECTRVYDVHTCK : 2.6 Log 2
